Experiment: Drug uptake in Sprague-Dawley rat stomach at 0.2 mg/kg, iv administered as cassette dose after 4 hrs by LC-MS/MS analysis
Type: ADME, organism-based
Conditions: read-out: Drug uptake
concentration at 4 h overview
Express your answer in ng/g, writing the number without its unit.

Here is how some molecules turned out for concentration at 4 h.
{"columns": ["Compound structure", "concentration at 4 h (ng/g)"],
 "data": [
  ["CNCc1cn(S(=O)(=O)c2ccccn2)c(-c2cccnc2F)c1F", 337],
  ["CNCc1cn(S(=O)(=O)c2cc(OC)ccn2)c(-c2cccnc2F)c1F", 268],
  ["CNCc1cn(S(=O)(=O)c2ccc(F)cn2)c(-c2cccnc2F)c1F", 347],
  ["CNCc1cn(S(=O)(=O)c2cccc(OC)n2)c(-c2cccnc2F)c1F", 971],
  ["CNCc1cn(S(=O)(=O)c2cccnc2Cl)c(-c2cccnc2F)c1F", 427]
]}

Recorded concentration at 4 h of CNCc1cn(S(=O)(=O)c2ccc(OC)cn2)c(-c2cccnc2F)c1F , please.
426

Recorded concentration at 4 h of CNCc1cc(-c2cccnc2F)n(S(=O)(=O)c2cccnc2)c1 , please.
541

Recorded concentration at 4 h of CNCc1cn(S(=O)(=O)c2cc(C)ccn2)c(-c2cccnc2F)c1F , please.
682

Recorded concentration at 4 h of CNCc1cn(S(=O)(=O)c2ccco2)c(-c2cccnc2F)c1F , please.
254

Recorded concentration at 4 h of CNCc1cn(S(=O)(=O)c2cccc(C)n2)c(-c2cccnc2F)c1F , please.
527

Recorded concentration at 4 h of CNCc1cn(S(=O)(=O)c2cccnc2C)c(-c2cccnc2F)c1F , please.
300

* * *

Biological target: hERG (KCNH2) (Homo sapiens)
Sequence (Q12809 whole entry): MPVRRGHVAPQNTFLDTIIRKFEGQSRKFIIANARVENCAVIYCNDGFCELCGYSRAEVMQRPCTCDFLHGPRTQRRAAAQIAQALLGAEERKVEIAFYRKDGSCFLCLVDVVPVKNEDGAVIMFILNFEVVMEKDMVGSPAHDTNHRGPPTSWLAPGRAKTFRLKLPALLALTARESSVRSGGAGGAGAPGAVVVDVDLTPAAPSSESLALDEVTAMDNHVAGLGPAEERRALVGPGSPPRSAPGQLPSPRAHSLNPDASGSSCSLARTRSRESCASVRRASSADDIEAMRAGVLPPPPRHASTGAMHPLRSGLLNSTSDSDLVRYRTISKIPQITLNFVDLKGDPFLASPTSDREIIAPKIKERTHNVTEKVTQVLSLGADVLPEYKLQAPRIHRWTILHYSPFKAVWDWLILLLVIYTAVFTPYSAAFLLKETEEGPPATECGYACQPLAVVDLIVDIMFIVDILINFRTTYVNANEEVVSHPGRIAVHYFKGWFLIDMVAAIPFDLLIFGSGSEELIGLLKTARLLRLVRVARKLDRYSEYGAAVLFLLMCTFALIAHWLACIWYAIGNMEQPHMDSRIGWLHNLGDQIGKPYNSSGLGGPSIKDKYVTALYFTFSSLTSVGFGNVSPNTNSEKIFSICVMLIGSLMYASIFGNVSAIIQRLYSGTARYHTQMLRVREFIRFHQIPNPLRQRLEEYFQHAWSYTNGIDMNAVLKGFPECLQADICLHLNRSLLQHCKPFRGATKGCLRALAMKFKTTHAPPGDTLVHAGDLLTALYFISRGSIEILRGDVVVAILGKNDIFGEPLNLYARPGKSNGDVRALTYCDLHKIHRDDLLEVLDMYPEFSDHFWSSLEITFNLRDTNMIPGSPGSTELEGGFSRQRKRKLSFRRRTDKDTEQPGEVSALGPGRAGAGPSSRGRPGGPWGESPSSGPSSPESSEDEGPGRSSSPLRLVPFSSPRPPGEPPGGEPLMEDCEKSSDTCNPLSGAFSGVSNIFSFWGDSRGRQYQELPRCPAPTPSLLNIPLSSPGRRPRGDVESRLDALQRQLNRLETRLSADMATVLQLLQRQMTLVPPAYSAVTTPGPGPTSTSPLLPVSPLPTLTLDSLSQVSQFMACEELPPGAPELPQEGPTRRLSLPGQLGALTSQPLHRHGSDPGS
Assay: Inhibition of human ERG expressed in HEK cells at 10 uM at -75 mV holding potential by Whole-cell voltage clamp assay relative to control
Type: cell-based
Details: HEK cells expressing human ERG
Classes are defined on inhibition at 10 µM with ranges low class = under 20%, middle class = from 20% up to 40%, high class = 40% and over

Field: example entries. Status: answers known.
{"columns": ["Compound structure", "Tested system", "Group"],
 "data": [
  ["CNCc1cn(S(=O)(=O)c2cccc(OC)n2)c(-c2cccnc2F)c1F", "hERG (KCNH2) (Homo sapiens)", "high class"],
  ["CNCc1cn(S(=O)(=O)c2cc(C)ccn2)c(-c2cccnc2F)c1F", "hERG (KCNH2) (Homo sapiens)", "high class"],
  ["CNCc1cn(S(=O)(=O)c2ccccn2)c(-c2cccnc2F)c1F", "hERG (KCNH2) (Homo sapiens)", "low class"],
  ["CNCc1cn(S(=O)(=O)c2ccco2)c(-c2cccnc2F)c1F", "hERG (KCNH2) (Homo sapiens)", "middle class"],
  ["CNCc1cn(S(=O)(=O)c2cccnc2C)c(-c2cccnc2F)c1F", "hERG (KCNH2) (Homo sapiens)", "low class"],
  ["CNCc1cn(S(=O)(=O)c2cccs2)c(-c2cccnc2F)c1F", "hERG (KCNH2) (Homo sapiens)", "high class"],
  ["CNCc1cn(S(=O)(=O)c2cncc(F)c2)c(-c2cccnc2F)c1F", "hERG (KCNH2) (Homo sapiens)", "middle class"],
  ["CNCc1cn(S(=O)(=O)c2ccc(C)nc2)c(-c2cccnc2F)c1F", "hERG (KCNH2) (Homo sapiens)", "middle class"]
]}

Tag the class for CNCc1cn(S(=O)(=O)c2cnccc2C)c(-c2cccnc2F)c1F
middle class

Tag the class for CNCc1cn(S(=O)(=O)c2cc(OC)ccn2)c(-c2cccnc2F)c1F
middle class

Tag the class for CNCc1cn(S(=O)(=O)c2ccoc2)c(-c2cccnc2F)c1F
high class

Tag the class for CNCc1cn(S(=O)(=O)c2cccc(C)n2)c(-c2cccnc2F)c1F
low class

Tag the class for CNCc1cn(S(=O)(=O)c2ccc(OC)cn2)c(-c2cccnc2F)c1F
low class
